- target-of-assay: yeast fRMsr (Saccharomyces cerevisiae)
- Construct: His-tag (C); made in house; host or cells: E. coli BL21 (DE3), pET21b
- Sequence (P36088 whole entry): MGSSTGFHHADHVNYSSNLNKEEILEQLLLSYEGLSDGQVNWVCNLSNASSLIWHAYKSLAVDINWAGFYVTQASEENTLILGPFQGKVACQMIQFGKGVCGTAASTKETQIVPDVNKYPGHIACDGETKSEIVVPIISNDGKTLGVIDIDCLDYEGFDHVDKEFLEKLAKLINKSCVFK
- experimental-details: Activity assay of purified recombinant yeast fRMsr towards free Met sulfoxides (HPLC, OPA derivatization)
- Assay type: biochemical, S. cerevisiae
- test-context: recombinant His-tagged yeast fRMsr
value-kind: Activity of recombinant yeast fRMsr protein towards the substrate

| compound | experimental-value |
| --- | --- |
| CN(C)c1ccc(/N=N/c2ccc(S(=O)(=O)N[C@@H](CC[S@@+](C)[O-])C(=O)O)cc2)cc1 [dabsyl-Met-RO] | inactive |
| CN(C)c1ccc(N=Nc2ccc(S(=O)(=O)N[C@@H](CC[S@+](C)[O-])C(=O)O)cc2)cc1 [dabsyl-Met-SO] | inactive |
| C[S@+]([O-])CC[C@H](N)C(=O)O [Met-SO, methionine-S-sulfoxide] | inactive |
